Ref: paper PMC7667655

- assayed.target: FKBP12 (Homo sapiens, UniProt P62942)
- Construct: 6His-SUMO (N, cleaved yes); made in house; host or cells: E. coli (identical protocol to FBD35, BL21 DE3)
- Sequence (P62942 whole entry): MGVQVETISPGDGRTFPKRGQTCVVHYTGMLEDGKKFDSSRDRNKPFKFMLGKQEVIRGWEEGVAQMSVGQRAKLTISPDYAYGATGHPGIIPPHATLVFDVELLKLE
- experimental.protocol: Fluorescence polarization competition, FKBP12
- Type: binding
pIC50: −log10 of the molar value.
The label depends only on pIC50: label 1 if it is at least 7, label 0 if it is smaller.

Examples with answers:
>  <compound>
CCC(=O)Nc1cccc([C@@H](CCc2ccc(OC)c(OC)c2)OC(=O)[C@@H]2CCCCN2C(=O)C(=O)C(C)(C)CC)c1 [1b]

>  <cat>
label 1

$$$$
>  <compound>
C=CC(=O)OCC(C)(C)C(=O)C(=O)N1CCCC[C@H]1C(=O)O[C@H](CCc1ccc(OC)c(OC)c1)c1cccc(OCC(=O)O)c1 [2h]

>  <cat>
label 1

$$$$
>  <compound>
C=CC(=O)NCCCC(=O)N1CCCC[C@H]1C(=O)O[C@H](CCc1ccc(OC)c(OC)c1)c1ccccc1 [2e]

>  <cat>
label 0

$$$$
>  <compound>
C=CC(=O)Nc1cccc([C@@H](CCc2ccc(OC)c(OC)c2)OC(=O)[C@@H]2CCCCN2C(=O)C(=O)c2cc(OC)c(OC)c(OC)c2)c1 [1e]

>  <cat>
label 0

$$$$
>  <compound>
C=CC(=O)NCC(C)(C)C(=O)C(=O)N1CCCC[C@H]1C(=O)O[C@H](CCc1ccc(OC)c(OC)c1)c1ccccc1 [2a]

>  <cat>
label 1

$$$$
>  <compound>
CCC(=O)OCC(C)(C)C(=O)C(=O)N1CCCC[C@H]1C(=O)O[C@H](CCc1ccc(OC)c(OC)c1)c1ccccc1 [2d]

>  <cat>
label 1

$$$$
>  <compound>
C=CC(=O)OCC(C)(C)C(=O)C(=O)N1CCCC[C@H]1C(=O)O[C@H](CCc1ccc(OC)c(OC)c1)c1ccccc1 [2c]

>  <cat>
label 0

$$$$
>  <compound>
C=CC(=O)Nc1ccccc1[C@@H](CCc1ccc(OC)c(OC)c1)OC(=O)[C@@H]1CCCCN1C(=O)C(=O)C(C)(C)CC [1c]

>  <cat>
label 0

$$$$

Next up:
Could you verify whether the entry CCC(=O)NCC(C)(C)C(=O)C(=O)N1CCCC[C@H]1C(=O)O[C@H](CCc1ccc(OC)c(OC)c1)c1ccccc1 [2b] shows pIC50 of no less than 7?
label 1

====

Exercise: for every item that follows, state its recorded K, rate of FKBP35 consumption.
- assayed.target: FKBP35 (Plasmodium falciparum)
- Construct: FKBP35 Q5 -A128; 6His-SUMO (N, cleaved yes); made in house; host or cells: E. coli BL21 DE3
- Sequence (Q8I4V8 5-128): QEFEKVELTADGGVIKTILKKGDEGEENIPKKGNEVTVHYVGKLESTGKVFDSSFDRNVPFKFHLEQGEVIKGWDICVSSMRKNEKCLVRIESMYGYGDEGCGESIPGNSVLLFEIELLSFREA
- experimental.protocol: Time course of covalent modification by LC-MS
- Assay type: biochemical
- condition.parameters: 2250 nM inhibitor : 450 nM FKBP35, 23 °C, one phase decay fit
Numbers only, in h⁻¹.

Use these answered entries as a reference point.
>  <compound>
C=CC(=O)OCC(C)(C)C(=O)C(=O)N1CCCC[C@H]1C(=O)O[C@H](CCc1ccc(OC)c(OC)c1)c1ccccc1 [2c]

>  <readout.type>
K, rate of FKBP35 consumption

>  <measurement.unit>
h⁻¹

>  <result>
0.8871

$$$$
>  <compound>
C=CC(=O)Nc1cccc([C@@H](CCc2ccc(OC)c(OC)c2)OC(=O)[C@@H]2CCCCN2C(=O)C(=O)C(C)(C)CC)c1 [1a]

>  <readout.type>
K, rate of FKBP35 consumption

>  <measurement.unit>
h⁻¹

>  <result>
0.0724

$$$$
>  <compound>
C=CC(=O)Nc1ccccc1[C@@H](CCc1ccc(OC)c(OC)c1)OC(=O)[C@@H]1CCCCN1C(=O)C(=O)C(C)(C)CC [1c]

>  <readout.type>
K, rate of FKBP35 consumption

>  <measurement.unit>
h⁻¹

>  <result>
0.1132

$$$$

Next, consider the following compound.
Which K, rate of FKBP35 consumption reading was recorded for the compound C=CC(=O)NCC(C)(C)C(=O)C(=O)N1CCCC[C@H]1C(=O)O[C@H](CCc1ccc(OC)c(OC)c1)c1ccccc1 [2a] ?
0.05916

====

- assayed.target: nLuc-tagged FKBP12 (Homo sapiens, UniProt P62942)
- Construct: full length Plasmodium falciparum FKBP35 and human FKBP12 DNA were
- Sequence (P62942 whole entry): as the sequence (P62942 whole entry) above
- experimental.protocol: NanoBRET cellular target engagement, nLuc-FKBP12
Exercise: for every item that follows, state its recorded IC50.
Give bare numbers, in µM.

>  <smi>
C=CC(=O)OCC(C)(C)C(=O)C(=O)N1CCCC[C@H]1C(=O)O[C@H](CCc1ccc(OC)c(OC)c1)c1ccccc1

>  <result>
0.601

$$$$
>  <smi>
CCC(=O)OCC(C)(C)C(=O)C(=O)N1CCCC[C@H]1C(=O)O[C@H](CCc1ccc(OC)c(OC)c1)c1ccccc1

>  <result>
0.454

$$$$
>  <smi>
CCC(=O)Nc1cccc([C@@H](CCc2ccc(OC)c(OC)c2)OC(=O)[C@@H]2CCCCN2C(=O)C(=O)C(C)(C)CC)c1

>  <result>
0.313

$$$$
>  <smi>
CCC(=O)NCC(C)(C)C(=O)C(=O)N1CCCC[C@H]1C(=O)O[C@H](CCc1ccc(OC)c(OC)c1)c1ccccc1

>  <result>
0.416

$$$$

Hi! Can you tell me IC50 for each of these compounds?
1. C=CC(=O)NCC(C)(C)C(=O)C(=O)N1CCCC[C@H]1C(=O)O[C@H](CCc1ccc(OC)c(OC)c1)c1ccccc1
2. C=CC(=O)Nc1cccc([C@@H](CCc2ccc(OC)c(OC)c2)OC(=O)[C@@H]2CCCCN2C(=O)C(=O)C(C)(C)CC)c1

0.501
0.481

====

- assayed.target: FKBP35 (Plasmodium falciparum)
- Construct: FKBP35 Q5 -A128; 6His-SUMO (N, cleaved yes); made in house; host or cells: E. coli BL21 DE3
- experimental.protocol: Time course of covalent modification by LC-MS
- Format: biochemical
- condition.parameters: 2250 nM inhibitor : 450 nM FKBP35, exponential plateau fit
readout.type: K’, rate of covalent adduct formation
Output should be the measured figure followed by the unit it is expressed in.

>  <smi>
C=CC(=O)Nc1ccccc1[C@@H](CCc1ccc(OC)c(OC)c1)OC(=O)[C@@H]1CCCCN1C(=O)C(=O)C(C)(C)CC

>  <assayed.target>
FKBP35 (Plasmodium falciparum)

>  <K’, rate of covalent adduct formation>
0.1128 h⁻¹

$$$$
>  <smi>
C=CC(=O)Nc1cccc([C@@H](CCc2ccc(OC)c(OC)c2)OC(=O)[C@@H]2CCCCN2C(=O)C(=O)C(C)(C)CC)c1

>  <assayed.target>
FKBP35 (Plasmodium falciparum)

>  <K’, rate of covalent adduct formation>
0.05948 h⁻¹

$$$$
>  <smi>
C=CC(=O)NCC(C)(C)C(=O)C(=O)N1CCCC[C@H]1C(=O)O[C@H](CCc1ccc(OC)c(OC)c1)c1ccccc1

>  <assayed.target>
FKBP35 (Plasmodium falciparum)

>  <K’, rate of covalent adduct formation>
0.04354 h⁻¹

$$$$

Which K’, rate of covalent adduct formation reading was recorded for the compound `C=CC(=O)OCC(C)(C)C(=O)C(=O)N1CCCC[C@H]1C(=O)O[C@H](CCc1ccc(OC)c(OC)c1)c1ccccc1` ?
0.9298 h⁻¹

====

- experimental.protocol: PBS solubility
- condition.parameters: pH 7.4
Exercise: for every item that follows, state its recorded log10 solubility.
Please keep in mind that the values are log10 of solubility expressed in µM.

Use these answered entries as a reference point.
>  <compound>
C=CC(=O)OCC(C)(C)C(=O)C(=O)N1CCCC[C@H]1C(=O)O[C@H](CCc1ccc(OC)c(OC)c1)c1cccc(OCC(=O)O)c1

>  <log10 solubility>
1.85

$$$$
>  <compound>
C=CC(=O)Nc1cccc([C@@H](CCc2ccc(OC)c(OC)c2)OC(=O)[C@@H]2CCCCN2C(=O)C(=O)c2cc(OC)c(OC)c(OC)c2)c1

>  <log10 solubility>
0.49

$$$$
>  <compound>
C=CC(=O)Nc1ccccc1[C@@H](CCc1ccc(OC)c(OC)c1)OC(=O)[C@@H]1CCCCN1C(=O)C(=O)C(C)(C)CC

>  <log10 solubility>
0.54

$$$$
>  <compound>
C=CC(=O)Nc1ccccc1[C@@H](CCc1ccc(OC)c(OC)c1)OC(=O)[C@@H]1CCCCN1C(=O)C(=O)c1cc(OC)c(OC)c(OC)c1

>  <log10 solubility>
1.36

$$$$

Hi! Can you tell me log10 solubility for each of these compounds?
1. CCC(C)(C)C(=O)C(=O)N1CCCC[C@H]1C(=O)O[C@H](CCc1ccc(OC)c(OC)c1)c1cccc(OCC(=O)O)c1 [SLFb, reference compound]
2. C=CC(=O)Nc1cccc([C@@H](CCc2ccc(OC)c(OC)c2)OC(=O)[C@@H]2CCCCN2C(=O)C(=O)C(C)(C)CC)c1

1. 1.77
2. -0.51
